Quick reference for IC50 among some molecules
System: Total ATXN3 (tATXN3) protein
Assay: Endogenous Total ATXN3 (tATXN3) Protein Assay (MSD immunoassay of cell lysates)
Type: cell-based
Conditions: average IC50, total ATXN3 protein in cell lysate after 48 h with compound (Table 1)
Experimental: Endogenous Total ATXN3 (tATXN3) Protein Assay Meso Scale Discovery (MSD) 96-well or 384-well plates were coated overnight at 4° C. with Ataxin 3 mouse monoclonal antibody (Invitrogen, MA3-082) at a concentration of 0.5 μg/mL in PBS (30 μL per well). […] Cells were thawed and incubated in cell culture media (DMEM, 10% FBS, and 1% antibiotic cocktail) for 72 h. Cells were trypsinized, counted, and re-suspended to a concentration of 100,000 cells/mL in cell culture media. […]

>  <molecule>
CC#CCNc1cc(Cl)nc2c(Br)c([C@H]3CC=CC[C@@H]3N)sc12

>  <IC50>
≤ 30 nM

$$$$
>  <molecule>
N[C@H]1CCCC[C@@H]1c1sc2c(NCc3ccccc3)cc(Cl)nc2c1Cl

>  <IC50>
≤ 30 nM

$$$$
>  <molecule>
Cc1c([C@@H]2CCC[C@H](F)[C@H]2N)sc2c(NCc3cccs3)cc(Cl)nc12.Cc1c([C@H]2CCC[C@@H](F)[C@@H]2N)sc2c(NCc3cccs3)cc(Cl)nc12 (mixture of isomers)

>  <IC50>
30 to 300 nM

$$$$
>  <molecule>
N[C@H]1CCCO[C@@H]1c1c(Br)c2nc(Cl)cc(NCc3cccs3)c2n1C(F)F

>  <IC50>
30 to 300 nM

$$$$
>  <molecule>
N[C@@H]1CCC[C@H]1c1sc2c(NCc3ccco3)cc(Cl)nc2c1Br

>  <IC50>
> 1000 nM

$$$$
>  <molecule>
N[C@H]1CC=CC[C@@H]1c1sc2c(NCc3cccs3)cc(Cl)nc2c1C#CCCCCO

>  <IC50>
≤ 30 nM

$$$$
>  <molecule>
N[C@H]1CCCCC[C@H]1c1cc2nc(Cl)cc(NCc3cccs3)c2s1

>  <IC50>
> 1000 nM

$$$$
>  <molecule>
Cc1c([C@H]2CC=CC[C@@H]2N)sc2c(NCc3cccs3)nc(Cl)nc12

>  <IC50>
30 to 300 nM

$$$$
>  <molecule>
N[C@@H]1CCCO[C@H]1c1sc2c(NCc3ccccc3)nc(Cl)nc2c1Br

>  <IC50>
> 1000 nM

$$$$
>  <molecule>
N[C@@H]1CC=CC[C@H]1c1sc2c(NCc3ccco3)nc(Cl)nc2c1Cl

>  <IC50>
≤ 30 nM

$$$$
>  <molecule>
N[C@H]1CCOC[C@@H]1c1sc2c(NCc3ccco3)cc(Cl)nc2c1Cl

>  <IC50>
≤ 30 nM

$$$$
>  <molecule>
CC#CCNc1cc(Cl)nc2c(Br)c([C@H]3CCCC[C@@H]3N)sc12

>  <IC50>
30 to 300 nM

$$$$
>  <molecule>
N[C@H]1COCC[C@@H]1c1sc2c(NCc3ccco3)cc(Cl)nc2c1Br

>  <IC50>
≤ 30 nM

$$$$
>  <molecule>
Cc1c([C@@H]2OCCC[C@H]2N)sc2c(NCc3cccs3)cc(Cl)nc12 (single isomer, unassigned) [Compound 44]

>  <IC50>
> 1000 nM

$$$$
>  <molecule>
N[C@@H]1CCCCC[C@@H]1c1sc2c(NCc3cccs3)cc(Cl)nc2c1Br

>  <IC50>
> 1000 nM

$$$$
>  <molecule>
CN(Cc1ccccc1)c1cc(Cl)nc2c(C#CCCCO)c([C@H]3CC=CC[C@@H]3N)sc12

>  <IC50>
300 to 1000 nM

$$$$
>  <molecule>
Cc1c([C@H]2OCCC[C@@H]2N)sc2c(NCc3ccco3)nc(Cl)nc12

>  <IC50>
30 to 300 nM

$$$$
>  <molecule>
CC1=C(C)C[C@@H](c2sc3c(NCc4ccco4)cc(Cl)nc3c2Cl)[C@H](N)C1

>  <IC50>
> 1000 nM

$$$$
>  <molecule>
Cc1c([C@H]2CC=CC[C@@H]2N)sc2c(NCc3cccs3)cc(C#N)nc12

>  <IC50>
≤ 30 nM

$$$$
>  <molecule>
[2H]C1=C([2H])C([2H])([2H])[C@@H](c2sc3c(NCc4ccco4)cc(Cl)nc3c2Cl)[C@H](N)C1([2H])[2H]

>  <IC50>
30 to 300 nM

$$$$
>  <molecule>
N[C@@H]1CCCCC[C@H]1c1sc2c(NCc3cccs3)cc(Cl)nc2c1I

>  <IC50>
> 1000 nM

$$$$
>  <molecule>
[2H]C1=C([2H])C([2H])([2H])[C@H](c2sc3c(NCc4ccco4)cc(Cl)nc3c2C)[C@@H](N)C1([2H])[2H]

>  <IC50>
≤ 30 nM

$$$$
>  <molecule>
Cn1c([C@H]2CCOC[C@@H]2N)c(Br)c2nc(Cl)cc(NCc3cccs3)c21

>  <IC50>
30 to 300 nM

$$$$
>  <molecule>
N[C@H]1CC=CC[C@@H]1c1sc2c(NCc3nccs3)cc(Cl)nc2c1Cl

>  <IC50>
≤ 30 nM

$$$$
>  <molecule>
N[C@H]1CC=CC[C@@H]1c1sc2c(NCc3ccco3)nc(Cl)nc2c1Br

>  <IC50>
≤ 30 nM

$$$$
>  <molecule>
Cc1c([C@@H]2CC=CC[C@H]2N)sc2c(NCc3ccncc3)nc(Cl)nc12

>  <IC50>
> 1000 nM

$$$$
>  <molecule>
Cc1c([C@@H]2CC=CC[C@H]2N)sc2c(NCc3cccs3)cc(Cl)nc12

>  <IC50>
≤ 30 nM

$$$$
>  <molecule>
N[C@H]1CCCC[C@@H]1c1sc2c(NCc3cccs3)cc(Cl)nc2c1-c1ccccc1

>  <IC50>
300 to 1000 nM

$$$$
>  <molecule>
N[C@H]1CC=CC[C@@H]1c1sc2c(NCc3ccco3)nc(Cl)nc2c1I

>  <IC50>
≤ 30 nM

$$$$
>  <molecule>
C[C@@H]1C=CC[C@H](c2sc3c(NCc4cccs4)cc(Cl)nc3c2Br)[C@H]1N.C[C@H]1C=CC[C@@H](c2sc3c(NCc4cccs4)cc(Cl)nc3c2Br)[C@@H]1N (mixture of isomers)

>  <IC50>
30 to 300 nM

$$$$
>  <molecule>
Cc1c([C@@H]2CCCC[C@@H]2N)sc2c(NCc3cccs3)cc(Cl)nc12

>  <IC50>
300 to 1000 nM

$$$$

* * *

System: Total ATXN3 (tATXN3) protein
Experiment: Endogenous Total ATXN3 (tATXN3) Protein Assay (MSD immunoassay of cell lysates)
Format: cell-based
Details: average IC50, total ATXN3 protein in cell lysate after 48 h with compound (Table 1)
Quick reference for IC50 among some molecules
readout_label: IC50

>  <molecule>
N[C@@H]1CC=CC[C@H]1c1sc2c(NCc3ccco3)cc(Cl)nc2c1Cl [Compound 299]

>  <recorded_result>
30 to 300 nM

$$$$
>  <molecule>
N[C@H]1CC=CC[C@@H]1c1sc2c(NCc3ccncc3)cc(Cl)nc2c1Cl [Compound 203]

>  <recorded_result>
≤ 30 nM

$$$$
>  <molecule>
Cc1c([C@H]2CC=CC[C@@H]2N)sc2c(NCc3ccncc3F)nc(Cl)nc12 [Compound 253]

>  <recorded_result>
30 to 300 nM

$$$$
>  <molecule>
Cc1c([C@H]2CC=CC[C@@H]2N)n(C(F)F)c2c(NCc3ccccc3)nc(Cl)nc12 [Compound 399]

>  <recorded_result>
300 to 1000 nM

$$$$
>  <molecule>
N[C@H]1CCCO[C@H]1c1sc2c(NCc3cccs3)cc(Cl)nc2c1Cl [Compound 19]

>  <recorded_result>
30 to 300 nM

$$$$
>  <molecule>
N[C@H]1CCCC[C@@H]1c1sc2c(NCc3ccco3)nc(Cl)nc2c1Br [Compound 68]

>  <recorded_result>
≤ 30 nM

$$$$
>  <molecule>
N[C@H]1CCCC[C@]1(F)c1sc2c(NCc3ccccc3)cc(Cl)nc2c1Br [Compound 37]

>  <recorded_result>
300 to 1000 nM

$$$$
>  <molecule>
N[C@H]1CCC[C@@H]1c1sc2c(NCc3cccs3)cc(Cl)nc2c1I [Compound 162]

>  <recorded_result>
≤ 30 nM

$$$$

* * *

Quick reference for pIC50 among some compounds
System: Total ATXN3 (tATXN3) protein
Experiment: Endogenous Total ATXN3 (tATXN3) Protein Assay (MSD immunoassay of cell lysates)
Format: cell-based
Settings: average IC50, total ATXN3 protein in cell lysate after 48 h with compound (Table 1)
pIC50: −log10 of the molar value.

>  <compound>
Cc1c([C@H]2CC=CC[C@@H]2N)sc2c(NCc3ccncc3)nc(Cl)nc12 [Compound 234]

>  <pIC50>
≥ 7.52

$$$$
>  <compound>
N#Cc1cc(NCc2ccco2)c2sc([C@@H]3CC=CC[C@H]3N)c(Cl)c2n1 [Compound 443]

>  <pIC50>
≥ 7.52

$$$$
>  <compound>
N[C@@H]1CC=CC[C@H]1c1c(I)c2nc(Cl)nc(NCc3ccccc3)c2n1C(F)F [Compound 424]

>  <pIC50>
6.52 to 7.52

$$$$
>  <compound>
N[C@@H]1CCCC[C@H]1c1sc2c(NCc3cccs3)cc(Cl)nc2c1C(F)(F)F.N[C@H]1CCCC[C@@H]1c1sc2c(NCc3cccs3)cc(Cl)nc2c1C(F)(F)F (mixture of isomers) [Compound 356]

>  <pIC50>
6.52 to 7.52

$$$$
>  <compound>
N[C@@H]1CCCO[C@H]1c1sc2c(NCc3ccccc3)cc(Cl)nc2c1I [Compound 132]

>  <pIC50>
6.00 to 6.52

$$$$
>  <compound>
N[C@H]1CCOC[C@@H]1c1sc2c(NCc3cccs3)cc(Cl)nc2c1Cl [Compound 179]

>  <pIC50>
≥ 7.52

$$$$
>  <compound>
N[C@H]1CCCCC[C@@H]1c1sc2c(NCc3cccs3)cc(Cl)nc2c1Br [Compound 75]

>  <pIC50>
6.52 to 7.52

$$$$
>  <compound>
Cc1c([C@H]2COCC[C@@H]2N)sc2c(NCc3ccccc3)cc(Cl)nc12 [Compound 321]

>  <pIC50>
6.52 to 7.52

$$$$
